Tested on: P12-Ichikawa
assay_procedure: cell viability relative to DMSO control; higher = less cytotoxic
condition_summary: RPMI 5 mM glucose + 10% dialyzed FBS; 48 h; 0.000781 µM
For each record, write down the corresponding cell viability.
# output: numeric value plus its unit

Give cell viability for O=c1[nH]c(=O)n(C2CCCO2)cc1F (stereo not drawn)
88.6%

Give cell viability for `CC(C)(C)[C@H](NC(=O)c1ccc(N)c(Cl)c1)C(=O)N1CCC[C@H]1C(=O)N[C@H](C#N)CC(=O)O`
108%

Give cell viability for CC(O)C1C2C(C)\C(=C(/N2C1=O)C(O)=O)SC3CNC(C3)C(=O)N(C)C (stereo not drawn)
85.7%

Give cell viability for `Nc1nc(Cl)nc2c1ncn2[C@@H]1O[C@H](CO)[C@@H](O)[C@@H]1F`
28.4%

Give cell viability for `CCN1CCN(C(=O)Cc2ccc(Nc3ncc(F)c(Nc4ccc(C(=O)Nc5ccccc5Cl)cc4)n3)cc2)CC1`
119%

Give cell viability for `N=C1N[C@H]2[C@H](CS[C@H]2CCCCC(=O)O)N1`
114%

Give cell viability for Cc1ncc([N+](=O)[O-])n1CC(C)O (stereo not drawn)
102%

Give cell viability for `CC[C@]1(O)C[C@@H]2CN(CCc3c([nH]c4ccccc34)[C@@](C(=O)OC)(c3cc4c(cc3OC)N(C)[C@H]3[C@@](O)(C(N)=O)[C@H](O)[C@]5(CC)C=CCN6CC[C@]43[C@@H]65)C2)C1`
111%

The measurements presented in this section are drawn from the supplement of paper PMC11451515.
